Could you please report measured Emax for the items listed next?
molecular target: 5-HT2A (Homo sapiens, UniProt P28223); experiment: cell-based; design: expressed in transfected cells; host or cells: HEK293T, transient; details: read-out: 5-HT2A Gq Emax (% 5-HT), BRET, mean ± SEM
Sequence (P28223 whole entry): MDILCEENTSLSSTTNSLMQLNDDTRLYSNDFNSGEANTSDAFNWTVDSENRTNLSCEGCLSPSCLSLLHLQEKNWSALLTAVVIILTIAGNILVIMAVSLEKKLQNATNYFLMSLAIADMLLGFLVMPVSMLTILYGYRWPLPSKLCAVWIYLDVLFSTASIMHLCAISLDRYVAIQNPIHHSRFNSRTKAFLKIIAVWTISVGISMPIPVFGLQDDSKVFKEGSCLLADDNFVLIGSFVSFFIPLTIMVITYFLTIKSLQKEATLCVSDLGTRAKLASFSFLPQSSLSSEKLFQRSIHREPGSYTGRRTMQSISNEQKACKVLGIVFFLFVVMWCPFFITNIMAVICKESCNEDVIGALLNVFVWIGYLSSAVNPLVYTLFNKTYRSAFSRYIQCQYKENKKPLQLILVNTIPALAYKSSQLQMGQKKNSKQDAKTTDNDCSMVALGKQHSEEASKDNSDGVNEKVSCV
Give bare numbers, in %.

Please review the following examples before continuing.
COc1cc(CCNC2CCc3cccc(O)c32)c(OC)cc1C (stereo not shown) [(84)]; 71.9
COc1cc(Cl)ccc1CC(C)NCc1cccc(C)c1O (stereo not shown) [(46)]; 67.8
COc1cc(Br)c(Br)c(OC)c1CCNCc1cccc(C)c1O [(45)]; 70.5
COc1cc(Br)c(CCNCc2cccc(C)c2O)cc1OC [(43)]; 65.4

I would be grateful if you could provide Emax for each of the following entries.
1. COc1cc(Br)ccc1CCNCc1cccc(C)c1O [(41)]
2. COc1cc(OC)c(OC)cc1CCNCc1cccc2ccccc12 [(38)]
3. COc1cc(CCNCc2ccccc2-c2ccccc2)c(OC)cc1C [25D-NBPh (28)]
4. COc1cc([N+](=O)[O-])c(OC)cc1CCNCc1ccccc1-c1ccccc1 [25N-NBPh (17)]

**A:**
1: 68.7; 2: 24.3; 3: 23.2; 4: 23.2

**Q:** Please report the measured Emax for COc1cc(OC)c(OC)cc1CCNCc1ccccc1-c1ccc(O)cc1 [(64)]
**A:** 43.6
